# Test System: CYP2B6 (Homo sapiens, UniProt P20813)
# Sequence (P20813 whole entry): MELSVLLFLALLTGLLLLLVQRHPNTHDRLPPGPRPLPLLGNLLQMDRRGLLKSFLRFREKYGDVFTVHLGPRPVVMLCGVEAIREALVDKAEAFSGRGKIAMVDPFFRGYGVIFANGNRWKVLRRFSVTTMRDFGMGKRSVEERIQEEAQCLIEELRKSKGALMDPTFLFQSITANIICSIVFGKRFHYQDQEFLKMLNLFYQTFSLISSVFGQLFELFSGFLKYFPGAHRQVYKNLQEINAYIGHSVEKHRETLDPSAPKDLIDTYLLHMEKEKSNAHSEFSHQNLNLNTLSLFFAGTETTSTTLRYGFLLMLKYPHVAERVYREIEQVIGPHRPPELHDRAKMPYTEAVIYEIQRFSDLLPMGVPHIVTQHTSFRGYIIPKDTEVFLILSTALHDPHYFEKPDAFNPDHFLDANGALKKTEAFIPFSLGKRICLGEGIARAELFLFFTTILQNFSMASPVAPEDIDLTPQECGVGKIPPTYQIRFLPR
# Procedure Summary: CYP450 inhibition assay, pooled human liver microsomes, bupropion substrate
# Assay Context: both, human, pooled human liver microsomes, pH 7.4, probe bupropion
We use 40% as the dividing line for inhibition at 10 min, 10 µM: on or above the line is true, below is false.

[[record]]
compound = "CCCCOC(=O)[N-]S(=O)(=O)c1ccc(CC(C)C)cc1-c1ccc(Cn2ccnc2C(C)(C)C)cc1.[K+] [Example 2B]"
qualitative_label = "true"

[[record]]
compound = "CCCCOC(=O)[N-]S(=O)(=O)c1sc(CC(C)C)cc1-c1ccc(Cn2ccnc2C(C)(C)C)cc1.[K+] [Example 11B]"
qualitative_label = "true"

[[record]]
compound = "COC(=O)[N-]S(=O)(=O)c1sc(CC(C)C)cc1-c1ccc(Cn2ccnc2C(C)(C)C)cc1.[K+] [Example 12B]"
qualitative_label = "false"

[[record]]
compound = "COC(=O)NS(=O)(=O)c1ccc(CC(C)C)cc1-c1ccc(Cn2ccnc2C(C)(C)F)cc1 [Example 34]"
qualitative_label = "false"


====

# Test System: CYP2B6 (Homo sapiens)
# Procedure Summary: CYP450 inhibition assay, pooled human liver microsomes, bupropion substrate
# Assay Context: both, human, pooled human liver microsomes, pH 7.4, probe bupropion
Measure: inhibition at 10 min, 10 µM (%)

[[record]]
compound = "CCCCOC(=O)NS(=O)(=O)c1ccc(CC(C)C)cc1-c1ccc(Cn2ccnc2C(C)(C)F)cc1"
uom = "%"
reported_result = 29.8

[[record]]
compound = "COC(=O)[N-]S(=O)(=O)c1ccc(CC(C)C)cc1-c1ccc(Cn2ccnc2C(C)(C)O)cc1.[K+]"
uom = "%"
reported_result = 28

[[record]]
compound = "CCCCOC(=O)[N-]S(=O)(=O)c1sc(CC(C)C)cc1-c1ccc(Cn2ccnc2)cc1.[Na+] [Example 13, reference compound]"
uom = "%"
reported_result = 53

[[record]]
compound = "COC(=O)NS(=O)(=O)c1ccc(CC(C)C)cc1-c1ccc(Cn2ccnc2C(C)(C)C)cc1"
uom = "%"
reported_result = 18


====

# Test System: human AT2R (Homo sapiens)
# Sequence (P50052 1-363): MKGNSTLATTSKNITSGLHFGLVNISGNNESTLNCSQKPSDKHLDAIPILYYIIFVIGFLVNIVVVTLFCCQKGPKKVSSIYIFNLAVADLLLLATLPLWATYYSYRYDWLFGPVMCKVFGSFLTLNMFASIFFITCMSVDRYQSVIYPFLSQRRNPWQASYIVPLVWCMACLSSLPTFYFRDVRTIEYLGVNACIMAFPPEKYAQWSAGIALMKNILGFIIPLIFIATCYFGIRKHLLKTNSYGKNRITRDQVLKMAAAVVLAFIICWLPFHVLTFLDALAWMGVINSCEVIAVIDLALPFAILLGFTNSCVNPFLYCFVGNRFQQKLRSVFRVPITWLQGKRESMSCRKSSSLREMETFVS
Please use the following Ki ranges when assigning a class: lower bin: < 5 nM; middle bin: ≥ 5 nM and < 20 nM; upper bin: ≥ 20 nM

[[record]]
molecule = "CCCCOC(=O)NS(=O)(=O)c1sc(CC(C)C)nc1-c1ccc(Cn2ccnc2C(C)C)cc1 [Example 18]"
test_system = "human AT2R (Homo sapiens)"
qualitative_label = "middle bin"

[[record]]
molecule = "COC(=O)NS(=O)(=O)c1ccc(CC(C)C)cc1-c1ccc(Cn2ccnc2C(C)C)cc1 [Example 36]"
test_system = "human AT2R (Homo sapiens)"
qualitative_label = "lower bin"

[[record]]
molecule = "CCCCOC(=O)NS(=O)(=O)c1sc(CC(C)C)nc1-c1ccc(Cn2ccnc2C(C)(C)C)cc1 [Example 4]"
test_system = "human AT2R (Homo sapiens)"
qualitative_label = "middle bin"

[[record]]
molecule = "CCCc1nc(-c2ccc(Cn3ccnc3C(C)O)cc2)c(S(=O)(=O)NC(=O)OC)s1 (stereo not shown) [Example 25]"
test_system = "human AT2R (Homo sapiens)"
qualitative_label = "upper bin"

[[record]]
molecule = "CCCc1ccc(S(=O)(=O)[N-]C(=O)OC)c(-c2ccc(Cn3ccnc3C(C)(C)O)cc2)c1.[K+] [Example 30B]"
test_system = "human AT2R (Homo sapiens)"
qualitative_label = "lower bin"

[[record]]
molecule = "CCCCOC(=O)NS(=O)(=O)c1sc(CC(C)C)cc1-c1ccc(Cn2ccnc2C(C)(C)F)cc1 [Example 42]"
test_system = "human AT2R (Homo sapiens)"
qualitative_label = "lower bin"

[[record]]
molecule = "CCCc1nc(-c2ccc(Cn3ccnc3C3CC3)cc2)c(S(=O)(=O)NC(=O)OC)s1 [Example 28]"
test_system = "human AT2R (Homo sapiens)"
qualitative_label = "upper bin"

[[record]]
molecule = "COC(=O)NS(=O)(=O)c1ccc(CC(C)C)cc1-c1ccc(Cn2ccnc2C(C)(C)F)cc1 [Example 34]"
test_system = "human AT2R (Homo sapiens)"
qualitative_label = "lower bin"

[[record]]
molecule = "CCCCOC(=O)NS(=O)(=O)c1ccc(CC(C)C)cc1-c1ccc(Cn2ccnc2C(C)(C)C)cc1 [Example 2A]"
test_system = "human AT2R (Homo sapiens)"
qualitative_label = "middle bin"

[[record]]
molecule = "CCCCOC(=O)NS(=O)(=O)c1ccc(CC(C)C)cc1-c1ccc(Cn2ccnc2C2CC2)cc1 [Example 38A]"
test_system = "human AT2R (Homo sapiens)"
qualitative_label = "middle bin"


====

pKi: −log10 of the molar value.
The following are reported pKi results, target or system human AT2R (Homo sapiens).
Measure: pKi

[[record]]
molecule = "COC(=O)NS(=O)(=O)c1sc(CC(C)C)nc1-c1ccc(Cn2ccnc2C(C)C)cc1 [Example 20]"
qualifier_sign = "="
reported_result = 7.57

[[record]]
molecule = "CCCc1nc(-c2ccc(Cn3ccnc3C(C)(C)F)cc2)c(S(=O)(=O)NC(=O)OC)s1 [Example 46]"
qualifier_sign = "<"
reported_result = 6.00

[[record]]
molecule = "COCCOC(=O)NS(=O)(=O)c1sc(CC(C)C)cc1-c1ccc(Cn2ccnc2C(C)(C)C)cc1 [Example 44]"
qualifier_sign = "="
reported_result = 8.60

[[record]]
molecule = "COC(=O)NS(=O)(=O)c1sc(CC(C)C)nc1-c1ccc(Cn2ccnc2C2CC2)cc1 [Example 26]"
qualifier_sign = "="
reported_result = 7.00


====

# Test System: CYP2C19 (Homo sapiens, UniProt P33261)
# Sequence (P33261 whole entry): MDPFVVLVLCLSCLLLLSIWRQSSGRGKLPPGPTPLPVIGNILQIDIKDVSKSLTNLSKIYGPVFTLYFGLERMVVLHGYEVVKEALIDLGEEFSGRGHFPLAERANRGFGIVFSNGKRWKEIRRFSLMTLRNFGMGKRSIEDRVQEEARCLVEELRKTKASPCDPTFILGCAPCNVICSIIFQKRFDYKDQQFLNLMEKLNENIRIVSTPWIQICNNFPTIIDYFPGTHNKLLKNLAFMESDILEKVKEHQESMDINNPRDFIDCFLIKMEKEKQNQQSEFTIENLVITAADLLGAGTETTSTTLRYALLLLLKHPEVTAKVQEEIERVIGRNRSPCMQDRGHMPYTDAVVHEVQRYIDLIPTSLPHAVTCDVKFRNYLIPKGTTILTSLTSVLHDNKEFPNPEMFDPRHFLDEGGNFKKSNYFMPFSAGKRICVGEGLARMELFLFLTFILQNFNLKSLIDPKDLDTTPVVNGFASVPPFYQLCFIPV
# Procedure Summary: CYP450 inhibition assay, pooled human liver microsomes, omeprazole substrate
# Assay Context: both, human, pooled human liver microsomes, pH 7.4, probe omeprazole
We use 50% as the dividing line for inhibition at 10 min, 10 µM: on or above the line is criterion met, below is criterion not met.

[[record]]
compound = "COC(=O)NS(=O)(=O)c1ccc(CC(C)C)cc1-c1ccc(Cn2ccnc2C(C)(C)F)cc1"
qualitative_label = "criterion not met"

[[record]]
compound = "CCCCOC(=O)NS(=O)(=O)c1ccc(CC(C)C)cc1-c1ccc(Cn2ccnc2C(C)(C)F)cc1"
qualitative_label = "criterion not met"

[[record]]
compound = "CCCCOC(=O)[N-]S(=O)(=O)c1sc(CC(C)C)cc1-c1ccc(Cn2ccnc2)cc1.[Na+] [Example 13, reference compound]"
qualitative_label = "criterion met"

[[record]]
compound = "COC(=O)[N-]S(=O)(=O)c1sc(CC(C)C)cc1-c1ccc(Cn2ccnc2C(C)(C)C)cc1.[K+] [Example 12B]"
qualitative_label = "criterion not met"

[[record]]
compound = "CCCCOC(=O)[N-]S(=O)(=O)c1sc(CC(C)C)cc1-c1ccc(Cn2ccnc2C(C)(C)C)cc1.[K+] [Example 11B]"
qualitative_label = "criterion met"

[[record]]
compound = "COC(=O)NS(=O)(=O)c1ccc(CC(C)C)cc1-c1ccc(Cn2ccnc2C(C)(C)C)cc1"
qualitative_label = "criterion not met"

[[record]]
compound = "CCCCOC(=O)[N-]S(=O)(=O)c1ccc(CC(C)C)cc1-c1ccc(Cn2ccnc2C(C)(C)C)cc1.[K+]"
qualitative_label = "criterion met"

[[record]]
compound = "CCCCOC(=O)[N-]S(=O)(=O)c1ccc(CC(C)C)cc1-c1ccc(Cn2ccnc2C(C)(C)O)cc1.[K+]"
qualitative_label = "criterion met"

[[record]]
compound = "COC(=O)[N-]S(=O)(=O)c1ccc(CC(C)C)cc1-c1ccc(Cn2ccnc2C(C)(C)O)cc1.[K+]"
qualitative_label = "criterion not met"


====

# Test System: CYP1A (Homo sapiens, UniProt P05177)
# Sequence (P05177 whole entry): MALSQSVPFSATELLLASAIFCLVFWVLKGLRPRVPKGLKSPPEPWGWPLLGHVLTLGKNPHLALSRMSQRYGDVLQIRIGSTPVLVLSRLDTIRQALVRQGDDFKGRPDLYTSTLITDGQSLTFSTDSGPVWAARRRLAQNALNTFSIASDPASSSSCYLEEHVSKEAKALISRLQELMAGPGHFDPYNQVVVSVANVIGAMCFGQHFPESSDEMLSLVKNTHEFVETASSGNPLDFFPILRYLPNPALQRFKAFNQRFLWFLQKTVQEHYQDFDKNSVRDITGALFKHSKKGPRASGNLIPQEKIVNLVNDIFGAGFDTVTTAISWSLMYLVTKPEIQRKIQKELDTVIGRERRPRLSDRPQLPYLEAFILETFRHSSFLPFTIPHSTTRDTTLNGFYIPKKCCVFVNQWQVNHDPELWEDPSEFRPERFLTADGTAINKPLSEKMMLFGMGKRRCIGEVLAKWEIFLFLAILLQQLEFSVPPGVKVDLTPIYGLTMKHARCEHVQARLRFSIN
# Procedure Summary: CYP450 inhibition assay, pooled human liver microsomes, phenacetin substrate
# Assay Context: both, human, pooled human liver microsomes, pH 7.4, probe phenacetin
Measure: inhibition at 10 min, 10 µM (%)

[[record]]
compound = "CCCCOC(=O)[N-]S(=O)(=O)c1sc(CC(C)C)cc1-c1ccc(Cn2ccnc2)cc1.[Na+] [Example 13, reference compound]"
measure = "inhibition at 10 min, 10 µM"
reported_result = 77

[[record]]
compound = "COC(=O)[N-]S(=O)(=O)c1ccc(CC(C)C)cc1-c1ccc(Cn2ccnc2C(C)(C)O)cc1.[K+] [Example 8B]"
measure = "inhibition at 10 min, 10 µM"
reported_result = 5.7

[[record]]
compound = "CCCCOC(=O)[N-]S(=O)(=O)c1ccc(CC(C)C)cc1-c1ccc(Cn2ccnc2C(C)(C)O)cc1.[K+] [Example 7B]"
measure = "inhibition at 10 min, 10 µM"
reported_result = -50

[[record]]
compound = "COC(=O)NS(=O)(=O)c1ccc(CC(C)C)cc1-c1ccc(Cn2ccnc2C(C)(C)C)cc1 [Example 1A]"
measure = "inhibition at 10 min, 10 µM"
reported_result = 11

